B1: TPR t1 (parent)
chain: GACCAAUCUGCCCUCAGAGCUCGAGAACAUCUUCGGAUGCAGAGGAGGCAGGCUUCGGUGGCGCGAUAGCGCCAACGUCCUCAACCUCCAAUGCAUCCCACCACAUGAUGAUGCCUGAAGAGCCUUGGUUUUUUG

Variants of: B1
Assay: polymerase ribozyme fitness, log enrichment relative to wild type (log ratio); higher = more active; in vitro selection for triplet polymerase activity
Short version: polymerase ribozyme fitness (log ratio) at least -3 is true (1), less is false (0).

- Mutation code: "G39U G117C"
  Label class: "false (0)"
- Mutation code: "G36U G44A G71U"
  Label class: "false (0)"
- Mutation code: "C12A C20A G113U C115U U131A"
  Label class: "false (0)"
- Mutation code: "A43C U87G G113C"
  Label class: "true (1)"
- Mutation code: "C76U A90G C115A"
  Label class: "true (1)"
- Mutation code: "C8U C20A C53U U54A C89G"
  Label class: "false (0)"
- Mutation code: "A5U U38A G42U C72U A74U C85A C101A"
  Label class: "false (0)"
- Mutation code: "C4U C114A G128C"
  Label class: "false (0)"
- Mutation code: "C20A C31G G39U A46U G47A A100C A108U U125A"
  Label class: "false (0)"
- Mutation code: "A18G C49A C64U C79U G120C G128U"
  Label class: "false (0)"
- Mutation code: "C13A G48A U96A"
  Label class: "true (1)"
